Documented inhibition at 1 µM across a set of compounds
Biological target: human VR1 (Homo sapiens, UniProt Q8NER1)
Construct: expressed in transfected cells; host or cells: HEK293
Sequence (Q8NER1 whole entry): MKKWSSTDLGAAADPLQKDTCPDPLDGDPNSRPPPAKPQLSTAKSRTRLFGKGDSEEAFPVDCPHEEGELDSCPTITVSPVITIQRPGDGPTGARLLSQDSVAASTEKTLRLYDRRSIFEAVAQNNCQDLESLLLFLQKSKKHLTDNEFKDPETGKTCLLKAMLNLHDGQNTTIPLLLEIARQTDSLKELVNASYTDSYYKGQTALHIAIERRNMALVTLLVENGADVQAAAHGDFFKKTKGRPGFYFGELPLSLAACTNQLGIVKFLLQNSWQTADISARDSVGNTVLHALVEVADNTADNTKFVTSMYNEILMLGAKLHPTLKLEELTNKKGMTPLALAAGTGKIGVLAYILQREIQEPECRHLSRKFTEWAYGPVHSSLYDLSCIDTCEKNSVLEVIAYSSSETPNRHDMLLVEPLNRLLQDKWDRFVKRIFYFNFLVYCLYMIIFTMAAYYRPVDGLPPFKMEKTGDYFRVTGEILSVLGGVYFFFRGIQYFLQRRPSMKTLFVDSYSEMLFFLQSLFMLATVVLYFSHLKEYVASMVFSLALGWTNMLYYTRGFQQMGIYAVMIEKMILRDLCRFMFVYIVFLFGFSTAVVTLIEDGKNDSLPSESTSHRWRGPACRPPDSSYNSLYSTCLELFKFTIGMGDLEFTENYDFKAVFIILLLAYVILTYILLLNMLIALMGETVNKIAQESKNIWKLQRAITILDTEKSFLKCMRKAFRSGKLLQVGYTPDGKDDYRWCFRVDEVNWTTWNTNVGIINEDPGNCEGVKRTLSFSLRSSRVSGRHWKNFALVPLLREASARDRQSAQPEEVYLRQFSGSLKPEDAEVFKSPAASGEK
Assay: Human VR1 [3H]RTX binding assay
Details: inhibition of [3H]RTX binding at 1 μM; read-out: h Binding % I (1 μM)
Hi! Could you send only the number? It should be in %, unit omitted.

Some entries whose results are on file:
O=C(CCc1ccc(C(F)(F)F)cc1)Nc1ccc(-c2ccc(CO)cc2)nc1 [Cpd 150]: 75
COC(=O)c1cccc(-c2ccc(NC(=O)CCc3ccc(C(C)(C)C)cc3)cc2)c1 [Cpd 29]: 43
CC(C)(C)c1ccc(CCC(=O)Nc2ccc(-c3cccc(N)c3)cc2)cc1 [Cpd 17]: 90
CC(C)(C)c1ccc(CCC(=O)Nc2ccc(-c3ccncc3)nc2)cc1 [Cpd 137]: 66
CC(C)(C)c1ccc(CCC(=O)Nc2ccc(-c3ccccn3)cc2)cc1 [Cpd 110]: 97

Look up inhibition at 1 µM for this compound: Cc1cc(NC(=O)CCc2ccc(C(C)(C)C)cc2)cnc1-c1ccccc1O [Cpd 160] 101

Look up inhibition at 1 µM for this compound: CC(C)(C)c1ccc(CCC(=O)Nc2ccc(-c3cccc(O)c3)cc2)s1 [Cpd 65] 77

Look up inhibition at 1 µM for this compound: CC(C)(C)c1ccc(CCC(=O)Nc2ccc(-c3cccc(C(N)=O)c3)cc2)cc1 [Cpd 31] 4

---

Documented Emax at 12 µM across a set of molecules
Molecular target: human VR1 (Homo sapiens, UniProt Q8NER1)
Construct: expressed in transfected cells; host or cells: HEK293
Assay: Human VR1 functional assay (FLIPR intracellular Ca2+)
Assay type: cell-based
Conditions: agonist response, 12 μM; read-out: % Response Relative to EC80 of Capsaicin (12 μM)

Some entries whose results are on file:
CC(C)(C)c1ccc(CCC(=O)Nc2ccc(-c3ccc(CO)cc3)cc2)cc1: 68%
CC(C)(C)c1ccc(CCC(=O)Nc2ccc(-c3cccnc3)nc2)cc1: 78%
CC(C)(C)c1ccc(CCC(=O)Nc2ccc(-c3cccc(Cl)c3)cc2)cc1: 53%

What reported Emax at 12 µM corresponds to `CC(C)(C)c1ccc(CCC(=O)Nc2ccc(-c3cccc(O)c3)nc2)cc1` on human VR1 (Homo sapiens, UniProt Q8NER1)? 126%

What reported Emax at 12 µM corresponds to `CC(C)(C)c1ccc(CCC(=O)Nc2ccc(-c3cccc(O)c3)cc2)cc1` on human VR1 (Homo sapiens, UniProt Q8NER1)? 24%

---

Molecular target: human VR1 (Homo sapiens, UniProt Q8NER1)
Construct: expressed in transfected cells; host or cells: HEK293
Test: Human VR1 [3H]RTX binding assay
Conditions: inhibition of [3H]RTX binding at 1 μM; read-out: h Binding % I (1 μM)
Where a name gives a salt, the structure may show the parent alone.
MEASURED METRIC: inhibition at 1 µM

CC(C)(C)c1ccc(CCC(=O)Nc2ccc(-c3cncnc3)cc2)cc1: 67%
CC(C)(C)c1ccc(CCC(=O)Nc2ccccc2-c2cccnc2)cc1: 1%
CC(C)(C)c1ccc(CCC(=O)Nc2ccc(-c3ccc(O)cc3)cc2)cc1: 90%
Cn1cncc1-c1ccc(NC(=O)CCc2ccc(C(C)(C)C)cc2)cc1: 19%
CC(C)(C)c1ccc(CCC(=O)Nc2cccc(-c3ccccn3)c2)cc1 [Cpd 109, hydrochloride]: 1%

What reported inhibition at 1 µM corresponds to `CC(C)(C)c1ccc(CCC(=O)Nc2ccc(-c3ccc(CO)cc3)cc2)cc1` on human VR1 (Homo sapiens, UniProt Q8NER1)? 87%

What reported inhibition at 1 µM corresponds to `CC(C)(C)c1ccc(CCC(=O)Nc2ccc(-c3cccc(C(=O)O)c3)cc2)cc1` on human VR1 (Homo sapiens, UniProt Q8NER1)? 2%

What reported inhibition at 1 µM corresponds to `CC(C)(C)c1ccc(CCC(=O)Nc2ccc(-c3cccc(OCCN)c3)cc2)cc1` on human VR1 (Homo sapiens, UniProt Q8NER1)? 16%

What reported inhibition at 1 µM corresponds to `CC(C)(C)c1ccc(CCC(=O)Nc2ccc(-c3cccc(O)c3)cc2F)cc1` on human VR1 (Homo sapiens, UniProt Q8NER1)? 52%

---

Target: human VR1 (Homo sapiens, UniProt Q8NER1)
Construct: expressed in transfected cells; host or cells: HEK293
Test: Human VR1 functional assay (FLIPR intracellular Ca2+)
Format: cell-based
Details: agonist response, 12 μM
# binarize % Response Relative to EC80 of Capsaicin (12 μM): threshold 80% inclusive, high side class 1, low side class 0

Solved cases below.
CC(C)(C)c1ccc(CCC(=O)Nc2ccc(-c3cccc(C(F)(F)F)c3)cc2)cc1 [Cpd 12]: class 0
CC(C)(C)c1ccc(CCC(=O)Nc2ccc(-c3ncccc3O)cc2)cc1 [Cpd 115]: class 0
NC(=O)c1cccc(-c2ccc(NC(=O)CCc3ccc(C(F)(F)F)cc3)cc2)c1 [Cpd 48]: class 0
O=C(CCc1ccc(C(F)(F)F)cc1)Nc1ccc(-c2cccc(CO)c2)cc1 [Cpd 79]: class 0
CC(C)(C)c1ccc(CCC(=O)Nc2ccc(-c3cccc(OC(F)(F)F)c3)cc2)cc1 [Cpd 26]: class 0

Assess whether reported % Response Relative to EC80 of Capsaicin (12 μM) for O=C(CCc1ccc(C(F)(F)F)cc1)Nc1ccc(-c2ccncc2)cc1 [Cpd 143] sits at 80% or higher. class 1

Assess whether reported % Response Relative to EC80 of Capsaicin (12 μM) for NC(=O)c1cccc(-c2ccc(NC(=O)CCc3ccc(C(F)(F)F)cc3)cn2)c1 [Cpd 144] sits at 80% or higher. class 0

---

Target: human VR1 (Homo sapiens, UniProt Q8NER1)
Construct: expressed in transfected cells; host or cells: HEK293
Assay: Human VR1 functional assay (FLIPR intracellular Ca2+)
Type: cell-based
Conditions: inhibition of capsaicin response, 10 μM
Documented h % I (10 μM) across a set of compounds
Hi! Could you send only the number? It should be in %, unit omitted.

Some entries whose results are on file:
CC(C)(C)c1ccc(CCC(=O)Nc2cccc(-c3ccccc3O)c2)cc1 [Cpd 9]: 16
CC(C)(C)c1ccc(CCC(=O)Nc2ccccc2-c2ccccc2O)cc1 [Cpd 8]: 45

Here is the next item to consider.
Look up h % I (10 μM) for this compound: CC(C)(C)c1ccc(CCC(=O)Nc2ccccc2-c2ccc(O)cc2)cc1 [Cpd 1] 45

---

Target: human VR1 (Homo sapiens)
Construct: expressed in transfected cells; host or cells: HEK293
Assay: Human VR1 functional assay (FLIPR intracellular Ca2+)
Assay type: cell-based
Conditions: agonist response, 6 μM
Documented % Response Relative to EC80 of Capsaicin (6 μM) across a set of compounds
Hi! Could you send only the number? It should be in %, unit omitted.

Some entries whose results are on file:
CC(C)(C)c1ccc(CCC(=O)Nc2ccc(-c3cccnc3)c(CO)c2)cc1 [Cpd 170]: 101
Cc1cc(-c2cccc(O)c2)ccc1NC(=O)CCc1ccc(C(C)(C)C)cc1 [Cpd 58]: 19
CC(C)(C)c1ccc(CCC(=O)Nc2cc(F)c(-c3ccc(O)cc3)c(F)c2)cc1 [Cpd 90]: 17

Here is the next item to consider.
Look up % Response Relative to EC80 of Capsaicin (6 μM) for this compound: CC(C)(C)c1ccc(CCC(=O)Nc2cc(F)c(-c3ccc(CO)cc3)c(F)c2)cc1 [Cpd 91] 22

---

Documented inhibition at 1 µM across a set of compounds
Target: human VR1 (Homo sapiens)
Construct: expressed in transfected cells; host or cells: HEK293
Assay: Human VR1 functional assay (FLIPR intracellular Ca2+)
Assay type: cell-based
Conditions: inhibition of capsaicin response, 1 μM; read-out: h % I (1 μM)
Hi! Could you send only the number? It should be in %, unit omitted.

Cc1cc(NC(=O)CCc2ccc(C(F)(F)F)cc2)cnc1-n1cnc(Cl)c1Cl [Cpd 203]: 99

What reported inhibition at 1 µM corresponds to O=C(CCc1ccc(C(F)(F)F)cc1)Nc1ccc(-n2cnc3c2CCCC3)c(C(F)(F)F)c1 [Cpd 270] on human VR1 (Homo sapiens)? 47

What reported inhibition at 1 µM corresponds to Cc1cn(-c2ncc(NC(=O)CCc3ccc(C(F)(F)F)cc3)cc2C)cn1 [Cpd 226] on human VR1 (Homo sapiens)? 83

What reported inhibition at 1 µM corresponds to O=C(/C=C/c1ccc(C(F)(F)F)cn1)Nc1ccc(-n2cnc(Cl)c2Cl)c(C(F)(F)F)c1 [Cpd 235] on human VR1 (Homo sapiens)? 99

What reported inhibition at 1 µM corresponds to CC(C)(C)c1ccc(CCC(=O)Nc2ccc(-c3ccc(O)cc3)c(CO)c2)cc1 [Cpd 94] on human VR1 (Homo sapiens)? 92

What reported inhibition at 1 µM corresponds to Cc1cn(-c2ccc(NC(=O)/C=C/c3ccc(S(=O)(=O)C(F)(F)F)cc3)cc2C(F)(F)F)cn1 [Cpd 205] on human VR1 (Homo sapiens)? 100

What reported inhibition at 1 µM corresponds to Cc1cc(NC(=O)CCc2ccc(N(C)C3CCCCC3)cc2)cnc1-n1cnc(Cl)c1Cl [Cpd 232] on human VR1 (Homo sapiens)? 99

What reported inhibition at 1 µM corresponds to O=C(CCc1ccc(C(F)(F)F)cc1)Nc1ccc(C2=NOS(=O)N2)c(C(F)(F)F)c1 (centres unmarked) [Cpd 245] on human VR1 (Homo sapiens)? 70
